- Target: T1, human MMP-2 (Biomol #SE-237) (human, UniProt P08253 110-452, limits assumed)
- T1 construct: also called hMMP-2
- T1 sequence (P08253 110-452 limits assumed): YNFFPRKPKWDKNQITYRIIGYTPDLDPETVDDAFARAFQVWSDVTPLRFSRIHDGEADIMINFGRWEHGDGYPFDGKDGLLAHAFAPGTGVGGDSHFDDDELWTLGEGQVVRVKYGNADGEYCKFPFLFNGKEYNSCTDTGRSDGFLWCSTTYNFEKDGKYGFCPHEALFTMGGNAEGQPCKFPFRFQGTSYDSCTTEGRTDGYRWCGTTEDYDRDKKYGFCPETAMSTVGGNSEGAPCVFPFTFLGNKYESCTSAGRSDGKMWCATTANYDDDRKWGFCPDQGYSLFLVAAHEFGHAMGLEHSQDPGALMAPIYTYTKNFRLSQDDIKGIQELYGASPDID
- Experiment Notes: Ki,app, enzyme inhibition assay (fluorogenic peptide substrate), medium-scale sFab
Quantity Measured: pKi
Reminder that pKi means the negative base-10 logarithm of the concentration expressed in mol/L.

The recorded pKi for entry M0273-A11 (Fab, V domains shown, sFab; variable domains only; also called M273-A11) VH: EVQLLESGGGLVQPGGSLRLSCAASGFTFSRYDMWWVRQAPGKGLEWVSVISPSGGATFYADSVKGRFTISRDNSKNTLYLQMNSLRAEDTAVYYCAKDRAYGDYVGWNGFDYWGQGTLVTVSS VL: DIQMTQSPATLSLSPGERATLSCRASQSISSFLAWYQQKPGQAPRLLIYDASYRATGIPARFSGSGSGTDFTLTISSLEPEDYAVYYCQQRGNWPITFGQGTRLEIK equals 8.57

The recorded pKi for entry M0256-D11 (Fab, V domains shown, sFab; variable domains only; also called M256-D11; 539A-M0256-D11) VH: EVQLLESGGGLVQPGGSLRLSCAASGFTFSHYDMWWVRQAPGKGLEWVSVIYSSGGPTFYADSVKGRFTISRDNSKNTLYLQMNSLRAEDTAVYYCAKDRAYGDYVGWNGFDYWGQGTLVTVSS VL: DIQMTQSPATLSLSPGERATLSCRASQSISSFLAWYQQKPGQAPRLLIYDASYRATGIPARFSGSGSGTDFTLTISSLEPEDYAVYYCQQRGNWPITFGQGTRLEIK equals 9.30

The recorded pKi for entry M0274-G08 (Fab, V domains shown, sFab; variable domains only; also called M274-G08) VH: EVQLLESGGGLVQPGGSLRLSCAASGFTFSVYDMWWVRQAPGKGLEWVSVIYPSGGATYYADSVKGRFTISRDNSKNTLYLQMNSLRAEDTAVYYCAKDRAYGDYVGWNGFDYWGQGTLVTVSS VL: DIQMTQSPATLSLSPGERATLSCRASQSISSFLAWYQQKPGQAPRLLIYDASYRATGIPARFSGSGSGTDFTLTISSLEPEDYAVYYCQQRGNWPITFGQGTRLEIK equals 9.40

The recorded pKi for entry M0299-A12 (Fab, V domains shown, sFab; variable domains only; also called M299-A12) VH: EVQLLESGGGLVQPGGSLRLSCAASGFTFSHYPMWWVRQAPGKGLEWVSYISSSGGGTFYADSVKGRFTISRDNSKNTLYLQMNSLRAEDTAVYYCAKDRAYGDYVGWNGFDYWGQGTLVTVSS VL: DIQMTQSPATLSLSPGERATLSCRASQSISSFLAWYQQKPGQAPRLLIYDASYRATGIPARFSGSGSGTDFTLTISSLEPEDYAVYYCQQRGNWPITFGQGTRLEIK equals 8.77

The recorded pKi for entry M0273-C10 (Fab, V domains shown, sFab; variable domains only; also called M273-C10) VH: EVQLLESGGGLVQPGGSLRLSCAASGFTFSFYPMWWVRQAPGKGLEWVSYIYPSGGATFYADSVKGRFTISRDNSKNTLYLQMNSLRAEDTAVYYCAKDRAYGDYVGWNGFDYWGQGTLVTVSS VL: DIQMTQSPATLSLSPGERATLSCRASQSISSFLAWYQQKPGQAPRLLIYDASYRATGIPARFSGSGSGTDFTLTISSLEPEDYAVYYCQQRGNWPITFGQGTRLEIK equals 8.70

The recorded pKi for entry M0301-A09 (Fab, V domains shown, sFab; variable domains only; also called M301-A09) VH: EVQLLESGGGLVQPGGSLRLSCAASGFTFSYYDMWWVRQAPGKGLEWVSVIYPSGGYTAYADSVKGRFTISRDNSKNTLYLQMNSLRAEDTAVYYCAKDRAYGDYVGWNGFDYWGQGTLVTVSS VL: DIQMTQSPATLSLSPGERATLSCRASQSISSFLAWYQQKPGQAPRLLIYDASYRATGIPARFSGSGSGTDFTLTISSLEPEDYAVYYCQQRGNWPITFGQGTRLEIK equals 9.00

Reference source: patent US20110135573A1
